# target_desc: Human tyrosinase (Homo sapiens, UniProt P14679)
# Construct: endogenous in cells; host or cells: normal human melanocytes (abdominal surgery; several donors of fair, brown and black phototypes)
# Sequence (P14679 19-529): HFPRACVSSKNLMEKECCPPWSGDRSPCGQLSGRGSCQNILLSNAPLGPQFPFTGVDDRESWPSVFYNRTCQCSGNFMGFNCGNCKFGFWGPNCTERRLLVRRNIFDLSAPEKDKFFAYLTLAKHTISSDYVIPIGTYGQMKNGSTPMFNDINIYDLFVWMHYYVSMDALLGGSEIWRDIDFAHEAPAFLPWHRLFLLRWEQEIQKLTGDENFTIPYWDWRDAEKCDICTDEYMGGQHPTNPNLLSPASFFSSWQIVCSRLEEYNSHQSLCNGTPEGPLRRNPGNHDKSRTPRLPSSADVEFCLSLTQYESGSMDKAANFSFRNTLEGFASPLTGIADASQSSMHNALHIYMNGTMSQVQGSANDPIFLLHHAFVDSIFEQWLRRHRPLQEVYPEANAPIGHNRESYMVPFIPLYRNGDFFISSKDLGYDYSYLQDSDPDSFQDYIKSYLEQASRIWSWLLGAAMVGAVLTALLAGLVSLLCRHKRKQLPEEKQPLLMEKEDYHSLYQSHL
# protocol_description: Inhibition of human tyrosinase after 24 h application to normal human melanocytes in monolayer
# Type: cell-based
# measurement_setup: Donor 3, fair phototype; 10^−4 M; read-out: Inhibition of tyrosinase, Mean 10^−4 M, Donor 3
assay_readout: inhibition at 100 µM (%)

> print(dat)
                                   molecule         assay.readout  units.of.measure  endpoint.result
1  COc1cc(/C=C/C(=O)NCCc2ccc(O)c(O)c2)ccc1O [Example 1, N-trans-feruloyldopamine]  inhibition at 100 µM                 %             50.2
2  COc1cc(/C=C/C(=O)NCCc2ccc(O)cc2)ccc1O [Example 3, N-trans-feruloyltyramine]  inhibition at 100 µM                 %             57.9
3  O=C(/C=C/c1ccc(O)c(O)c1)NCCc1ccc(O)c(O)c1 [Example 10, N-trans-caffeoyldopamine]  inhibition at 100 µM                 %             14.4
4  O=C(/C=C/c1ccc(O)c(O)c1)NCCc1ccc(O)cc1 [Example 9, N-trans-caffeoyltyramine]  inhibition at 100 µM                 %             70.7

---

Measured inhibition at 10 µM accompanies every entry in the list below.
# target_desc: Human tyrosinase (Homo sapiens)
# Construct: endogenous in cells; host or cells: normal human melanocytes (abdominal surgery; several donors of fair, brown and black phototypes)
# protocol_description: Inhibition of human tyrosinase after 24 h application to normal human melanocytes in monolayer
# Format: cell-based
# measurement_setup: Donor 1, fair phototype; 10^−5 M; read-out: Inhibition of tyrosinase, Mean 10^−5 M, Donor 1
assay_readout: inhibition at 10 µM (%)

> print(dat)
                                   compound                      target.desc        assay.readout  endpoint.result
1  O=C(/C=C/c1ccc(O)c(O)c1)NCCc1ccc(O)c(O)c1 [Example 10, N-trans-caffeoyldopamine]  Human tyrosinase (Homo sapiens)  inhibition at 10 µM                0
2  COc1cc(/C=C/C(=O)NCCc2ccc(O)c(O)c2)ccc1O [Example 1, N-trans-feruloyldopamine]  Human tyrosinase (Homo sapiens)  inhibition at 10 µM             35.8
3  COc1cc(/C=C/C(=O)NCCc2ccc(O)cc2)ccc1O [Example 3, N-trans-feruloyltyramine]  Human tyrosinase (Homo sapiens)  inhibition at 10 µM                0
4  O=C(/C=C/c1ccc(O)c(O)c1)NCCc1ccc(O)cc1 [Example 9, N-trans-caffeoyltyramine]  Human tyrosinase (Homo sapiens)  inhibition at 10 µM                0

---

# target_desc: Human tyrosinase (Homo sapiens, UniProt P14679)
# Construct: endogenous in cells; host or cells: normal human melanocytes (abdominal surgery; several donors of fair, brown and black phototypes)
# protocol_description: Inhibition of human tyrosinase after 24 h application to normal human melanocytes in monolayer
# Assay type: cell-based
# measurement_setup: Donor 2, fair phototype; 10^−4 M; read-out: Inhibition of tyrosinase, Mean 10^−4 M, Donor 2
Let's look at some compounds and their measured inhibition at 100 µM.
assay_readout: inhibition at 100 µM (%)

> print(dat)
                                   compound  endpoint.result
1  COc1cc(/C=C/C(=O)NCCc2ccc(O)cc2)ccc1O [Example 3, N-trans-feruloyltyramine]             10.7
2  O=C(/C=C/c1ccc(O)c(O)c1)NCCc1ccc(O)c(O)c1 [Example 10, N-trans-caffeoyldopamine]                0
3  O=C(/C=C/c1ccc(O)c(O)c1)NCCc1ccc(O)cc1 [Example 9, N-trans-caffeoyltyramine]             61.5
4  COc1cc(/C=C/C(=O)NCCc2ccc(O)c(O)c2)ccc1O [Example 1, N-trans-feruloyldopamine]             59.9
